- study system: MAPK14 (UniProt Q16539)
- Sequence (Q16539 whole entry, looked up): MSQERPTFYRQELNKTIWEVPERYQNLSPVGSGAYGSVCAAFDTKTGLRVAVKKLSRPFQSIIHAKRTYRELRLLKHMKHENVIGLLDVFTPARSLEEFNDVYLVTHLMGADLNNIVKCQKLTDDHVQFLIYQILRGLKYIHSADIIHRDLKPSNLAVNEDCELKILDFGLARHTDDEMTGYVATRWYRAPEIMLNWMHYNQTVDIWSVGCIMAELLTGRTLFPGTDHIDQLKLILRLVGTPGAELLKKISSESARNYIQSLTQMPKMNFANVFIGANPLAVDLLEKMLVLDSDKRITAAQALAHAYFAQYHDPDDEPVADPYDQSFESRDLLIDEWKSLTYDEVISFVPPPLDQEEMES
- protocol summary: MAPK14 inhibition (EGFRP)
pIC50: −log10 of the molar value.

>  <chemical string>
CN1CCC(n2cc(-c3ccc(F)cc3)c(-c3ccncc3)n2)CC1.CN1CCC(n2ncc(-c3ccc(F)cc3)c2-c2ccncc2)CC1

>  <study system>
MAPK14 (UniProt Q16539)

>  <relation operator>
=

>  <pIC50>
6.12

$$$$
>  <chemical string>
CN(C)CCn1cc(-c2ccc(F)cc2)c(-c2ccncc2)n1.CN(C)CCn1ncc(-c2ccc(F)cc2)c1-c1ccncc1

>  <study system>
MAPK14 (UniProt Q16539)

>  <relation operator>
=

>  <pIC50>
5.00

$$$$
>  <chemical string>
Fc1ccc(-c2cn(CCN3CCOCC3)nc2-c2ccncc2)cc1.Fc1ccc(-c2cnn(CCN3CCOCC3)c2-c2ccncc2)cc1

>  <study system>
MAPK14 (UniProt Q16539)

>  <relation operator>
<

>  <pIC50>
5.00

$$$$
>  <chemical string>
OCCn1cc(-c2ccc(F)cc2)c(-c2ccncc2)n1.OCCn1ncc(-c2ccc(F)cc2)c1-c1ccncc1

>  <study system>
MAPK14 (UniProt Q16539)

>  <relation operator>
=

>  <pIC50>
5.00

$$$$

Each recorded value in this set is attributed to the Kinase Knowledgebase extract (Sharma et al. 2016).
